Target: T1, IL13RA2 Protein, Rhesus macaque, His tag (Rhesus macaque, UniProt A0A5F8A9D9 27-343)
T1 construct: the summary sentence says cynomolgous; also called Rhesus macaque IL13R alpha 2 protein with His tag; cynomolgous IL 13RA2 (as the text calls it); not shown: His tag
T1 sequence: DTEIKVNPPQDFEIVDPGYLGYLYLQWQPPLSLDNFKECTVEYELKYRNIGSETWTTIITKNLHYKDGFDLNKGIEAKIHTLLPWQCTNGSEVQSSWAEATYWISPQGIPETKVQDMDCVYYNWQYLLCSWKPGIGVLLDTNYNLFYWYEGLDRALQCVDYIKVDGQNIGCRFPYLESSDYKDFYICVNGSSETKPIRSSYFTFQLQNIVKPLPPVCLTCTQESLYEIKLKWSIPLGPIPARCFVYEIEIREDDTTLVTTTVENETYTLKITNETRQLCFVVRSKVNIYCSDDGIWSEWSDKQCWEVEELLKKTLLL
Experiment: BLI; biotinylated VHH captured on streptavidin biosensor, antigen 1 uM in solution
Measure Name: koff

VH52f3 (VHH, biotinylated (site not stated), Expressed in E. coli and 6xHIS purified; also called VH52f3 Biotin; Anti-IL13Rα2 VH52) VHH: QVQLQESGGGLVQPGGSLRLSCEVSGSIFSINRMAWYRQVPEKEREMVAQITYGDTIKYYGSAKGRFTISRDSAKNAVYLQMNSLKPEDTAVYRCNIVGVLTTGHYEDSFWGQGTQVTVPS = ≤ 0.0001 s⁻¹
IL13Ra2_2TIG4_f3 (VHH, biotinylated (site not stated), Expressed in E. coli and 6xHIS purified; also called IL13Ra2_2TIG4_f3-Biotin) VHH: QVQLQESGGGLVQPGGSLRLSCAASGRTYGMGWFRQAPGKEREFVAVGVWSSGNTYYADFARGRFTISRDNAKNTVYLQMDSLKPEDTAVYYCAAPRYSSYTTYHAAYDYWGPGTQVTVSS = 0.000388 s⁻¹
VH57f5 (VHH, biotinylated (site not stated), Expressed in E. coli and 6xHIS purified; also called VH57f5 Biotin; Anti-IL13Rα2 VH57) VHH: QVQLQESGGGLVQPGGSLRLSCAASGSIFNTNGMGWYRQAPGKQRERVAGISSGGNTVYAASVEGRFTISRDNAKNTGYLQMNNLKPEDTAVYYCRVAGRQDDYWGQGTQVTVSS = 0.00485 s⁻¹
VH36f1 (VHH, biotinylated (site not stated), Expressed in E. coli and 6xHIS purified; also called VH36f1 Biotin; Anti-IL13Rα2 VH36) VHH: QVQLQESGGGSVQPGGSLRLSCAASGINISSDVMEWFRQGPGEQRELVAHITTNSRTEYADFVKGRFTISRANAKNTLYLQMNGLKPEDTALYYCALRRGGRILWGQGTQVTVSS = ≤ 0.0001 s⁻¹
VH53f3 (VHH, biotinylated (site not stated), Expressed in E. coli and 6xHIS purified; also called VH53f3 Biotin; Anti-IL13Rα2 VH53) VHH: QVQLQESGGGLVQPGGSLRLSCEVSGSISSINRMAWYRQVPGKEREMVAQITYGDTIKYYGSAKGRFTISKDSAKNAVYLQMNSLKPEDTAVYRCNIVGVLTTGHYENSFWGQGTQVTVSS = ≤ 0.0001 s⁻¹

Proceeding to the next binder to report its koff.
QUERY: Form field: reported koff of VH43f2 (VHH, biotinylated (site not stated), Expressed in E. coli and 6xHIS purified; also called VH43f2-Biotin; Anti-IL13Rα2 VH43) VHH: QVQLQESGGGLVQPGGSLRLSCTASGSIRGIGYMAWGRQGPGKPRELIATINSAGDTNYAESVKGRFTVSRDNAENTLYLQMNNLKSEDTAVYYCNARPGLQSYWGQGTQVTVSS
RESULT: 0.00164 s⁻¹
